System: Escherichia coli TOP10
Experiment: shrunken log2 fold change of peptide-encoding DNA abundance (4.5 h post-induction vs induction); higher = less antimicrobial activity (less host growth inhibition)
Conditions: time post-induction: 4.5 h; library: site-saturation at positions 5, 18, 19, 20
Lab note: compare shrunken log2 fold change against 0.03. Equal or greater, write Satisfied. Smaller, write Not satisfied.

- RRIRKRPPRLPRPRPRPGAYPRP: Satisfied
- RRIRKRPPRLPRPRPRPDNKPRP: Not satisfied
- RRIRFRPPRLPRPRPRPWVHPRP: Satisfied
- RRIRMRPPRLPRPRPRPCESPRP: Not satisfied
- RRIRARPPRLPRPRPRPGFQPRP: Satisfied
- RRIRTRPPRLPRPRPRPFTFPRP: Not satisfied
- RRIRSRPPRLPRPRPRPVQLPRP: Satisfied
- RRIRERPPRLPRPRPRPFCDPRP: Satisfied
- RRIRSRPPRLPRPRPRPKPTPRP: Satisfied
- RRIRFRPPRLPRPRPRPCLLPRP: Not satisfied
- RRIRNRPPRLPRPRPRPWTHPRP: Not satisfied
- RRIRFRPPRLPRPRPRPTRRPRP: Satisfied
- RRIRVRPPRLPRPRPRPKLFPRP: Satisfied
- RRIRSRPPRLPRPRPRPQMTPRP: Not satisfied
- RRIRVRPPRLPRPRPRPDQGPRP: Not satisfied
- RRIRMRPPRLPRPRPRPNDSPRP: Not satisfied
- RRIRERPPRLPRPRPRPCNLPRP: Not satisfied
- RRIRNRPPRLPRPRPRPMCWPRP: Satisfied
- RRIRVRPPRLPRPRPRPDYTPRP: Not satisfied
- RRIRARPPRLPRPRPRPLWDPRP: Not satisfied
- RRIRPRPPRLPRPRPRPMNVPRP: Not satisfied
- RRIRVRPPRLPRPRPRPLRKPRP: Satisfied
- RRIRRRPPRLPRPRPRPTCNPRP: Not satisfied
- RRIRVRPPRLPRPRPRPPECPRP: Not satisfied
- RRIRGRPPRLPRPRPRPENRPRP: Satisfied
- RRIRIRPPRLPRPRPRPLQQPRP: Not satisfied
- RRIRTRPPRLPRPRPRPWNLPRP: Not satisfied
- RRIRIRPPRLPRPRPRPETLPRP: Not satisfied
- RRIRFRPPRLPRPRPRPPWHPRP: Satisfied
- RRIRVRPPRLPRPRPRPAYKPRP: Not satisfied
- RRIRQRPPRLPRPRPRPHRDPRP: Not satisfied

###

Tested on: Escherichia coli TOP10;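 also: peptides expressed intracellularly from a pBAD plasmid library in pooled LB shake-flask culture, induced with 0.3% L-arabinose, DNA abundance read by NGS, three biological replicates, DESeq2 with apeglm shrinkage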
Assay: shrunken log2 fold change of peptide-encoding DNA abundance (4.5 h post-induction vs induction); higher = less antimicrobial activity (less host growth inhibition)
Conditions: time post-induction: 4.5 h; library: site-saturation at positions 5, 18, 19, 20
Lab note: compare shrunken log2 fold change against 0.09. Equal or greater, write Condition met. Smaller, write Condition not met.

• RRIRTRPPRLPRPRPRPNCPPRP = Condition not met
• RRIRVRPPRLPRPRPRPNFAPRP = Condition met
• RRIRCRPPRLPRPRPRPQNKPRP = Condition not met
• RRIRVRPPRLPRPRPRPGLVPRP = Condition met
• RRIRLRPPRLPRPRPRPCFEPRP = Condition not met
• RRIRCRPPRLPRPRPRPKTSPRP = Condition not met
• RRIRHRPPRLPRPRPRPTVYPRP = Condition not met
